Measured Target: T1, recombinant endotrophin protein (Homo sapiens, UniProt P12111)
T1 construct: the latter consisting of 77 amino acids at the carboxy-terminal of the COL6α3 chain; CD33 signal peptide (N, cleaved yes); His-tag with EK-cleavage site (N, cleaved yes); purchased Sino Biological, Beijing, China; host or cells: HEK293
T1 sequence (P12111 3101-3177): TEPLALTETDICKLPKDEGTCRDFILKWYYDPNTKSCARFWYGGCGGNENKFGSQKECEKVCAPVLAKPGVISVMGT
Assay Overview: Affinity measurement with BLI (Octet RED96)
Experimental Parameters: Octet (96-Red), 1:1 binding model
Parameter: kon

Task item: Dear colleague, I am looking for the recorded kon of the following molecule: ETP-mAb4.4: humanized IgG1 version of ETPmAb4; VH SEQ ID NO: 161, VL SEQ ID NO: 158 (antibody, V domains shown, human IgG1 constant regions) VH: EVQLLESGGGLVQPGGSLRLSCAASGFSFSSGYYICWVRQAPGKGLEWIACIYGGNNNPYYANWVNGRFTTSRDNSKNTLYLQMNSLRAEDTAVYYCARKDINIGGAYELWGQGTLVTVSS VL: DIQMTQSPSSLSASVGDRVTITCQASQSISSSYLSWYQQKPGKAPKLLIYKASTLASGVPSRFSGSGSGTDFTLTISSLQPEDFATYYCQYSDWANSYGNAFGGGTKVEIK
Reply: 1.30 E+05 1/Ms
